Attribution: patent US11970496B1

# System Tested: recombinant human CK2 (RRββ-holoenzyme) (Homo sapiens, UniProt P68400)
# Sequence (P68400 whole entry): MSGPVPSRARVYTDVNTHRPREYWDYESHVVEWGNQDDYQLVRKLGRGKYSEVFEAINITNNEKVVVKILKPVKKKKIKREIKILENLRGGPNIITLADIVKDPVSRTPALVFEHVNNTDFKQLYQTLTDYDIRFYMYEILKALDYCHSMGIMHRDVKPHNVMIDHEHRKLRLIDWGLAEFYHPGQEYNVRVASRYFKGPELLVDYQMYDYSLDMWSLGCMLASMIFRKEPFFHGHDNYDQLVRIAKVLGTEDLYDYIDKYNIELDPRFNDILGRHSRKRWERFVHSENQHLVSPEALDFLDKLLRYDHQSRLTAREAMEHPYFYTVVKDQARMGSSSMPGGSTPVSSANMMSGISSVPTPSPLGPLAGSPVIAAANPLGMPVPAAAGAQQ
# Sequence (P67870 whole entry partner): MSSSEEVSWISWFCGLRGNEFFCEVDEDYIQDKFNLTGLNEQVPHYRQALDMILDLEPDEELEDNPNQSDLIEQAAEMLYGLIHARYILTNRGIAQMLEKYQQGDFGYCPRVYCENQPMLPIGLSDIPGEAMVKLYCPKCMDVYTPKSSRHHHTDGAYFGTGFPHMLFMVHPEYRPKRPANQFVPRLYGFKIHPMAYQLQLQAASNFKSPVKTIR
# Method Description: CK2 Kinase Assay (33P-ATP, substrate peptide RRRDDDSDDD)
# Experimental Conditions: final ATP concentration 15 μM, 10 min at 30° C.; read-out: protein kinase CK2 IC50
Property Measured: pIC50
// pIC50 here means minus log10 of the molar concentration (mol/L)

Input: Entry O=C(O)c1ccc2c(c1)nc(Nc1cccc(Cl)c1)c1cc(C(=O)O)[nH]c12 [Compound 1] , system recombinant human CK2 (RRββ-holoenzyme) (Homo sapiens, UniProt P68400): what pIC50 was measured?
Output: 7.43

* * *

# System: HCT116 (colon)
# Method Description: In vitro cytotoxic activity assay (MTT), HCT116
# Format: cell-based
# Experimental Conditions: Homo sapiens, HCT-116; HCT116 cells, exposed for 96 hours; read-out: IC50, 50% inhibition of cell proliferation, HCT116 (colon)
Property Measured: pIC50
// pIC50 here means minus log10 of the molar concentration (mol/L)

Input: Give the measured pIC50 of O=C(O)c1ccc2c(c1)nc(Nc1cccc(Cl)c1)c1cc(C(=O)O)[nH]c12 [Compound 1] .
Output: 5.72

* * *

# Tested on: HL60 (leukemia)
# Method Description: In vitro cytotoxic activity assay (MTT), HL60
# Format: cell-based
# Experimental Conditions: Homo sapiens, HL-60; HL60 cells, exposed for 96 hours; read-out: IC50, 50% inhibition of cell proliferation, HL60 (leukemia)
Property Measured: pIC50
// pIC50 here means minus log10 of the molar concentration (mol/L)

Input: Give the measured pIC50 of O=C(O)c1ccc2c(c1)nc(Nc1cccc(Cl)c1)c1cc(C(=O)O)[nH]c12 .
Output: 5.54
